Tested on: HAdV5-GFP
Assay: Plaque assay (inhibition of HAdV plaque formation)
Type: cell-based, HAdV-5
Conditions: ratio of CC50 to IC50 in plaque assay
Reported Property: Selectivity index (SI)

>>> df
                                    compound  measurement_target  meas_value
 0  CC1(Nc2ccc(NC(=O)c3cc(Cl)ccc3O)c(Cl)c2)CCCC1           HAdV5-GFP       580.7
 1  O=C(Nc1ccc(NC2CCCC2)c(Cl)c1)c1cc(Cl)ccc1O           HAdV5-GFP        20.1
 2  O=C(Nc1ccc(NCc2cc(F)cc(Cl)c2)cc1Cl)c1cc(Cl)ccc1O           HAdV5-GFP         8.7
 3  CCCN(CCC)c1ccc(NC(=O)c2cc(Cl)ccc2O)c(Cl)c1           HAdV5-GFP        16.0
 4  CC(C)[C@H](NC(=O)c1cc(Cl)ccc1O)C(=O)Nc1ccc(F)c(F)c1           HAdV5-GFP        32.1
 5          O=C(NCCc1ccc(F)cc1)c1cc(Cl)ccc1O           HAdV5-GFP        39.1
 6   O=C(Nc1cc(F)cc(C(F)(F)F)c1)c1cccc(Cl)c1           HAdV5-GFP         6.9
 7  CC(C)[C@H](NC(=O)c1cc(Cl)ccc1O)C(=O)Nc1ccc(NC2CCCC2)cc1Cl           HAdV5-GFP        28.9
 8  O=C(Nc1ccc(NCc2cccc(Br)n2)cc1Cl)c1cc(Cl)ccc1O           HAdV5-GFP        40.8
 9   O=C(Nc1ccc(NC2CCCC2)cc1Cl)c1cc(Cl)ccc1O           HAdV5-GFP       185.8
10  O=C(Nc1ccc(NCc2ccc(C(F)(F)F)cc2)cc1Cl)c1cc(Cl)ccc1O           HAdV5-GFP        43.8
11  O=C(Nc1ccc(NCc2cc(C(F)(F)F)cc(C(F)(F)F)c2)cc1Cl)c1cc(Cl)ccc1O           HAdV5-GFP        82.9
12          O=C(NCc1ccc(Cl)cc1)c1cc(Cl)ccc1O           HAdV5-GFP         7.6
13    O=C(Nc1ccc(NC2CCCC2)cc1F)c1cc(Cl)ccc1O           HAdV5-GFP        49.1
14  Nc1ccn(C[C@@H](CO)OCP(=O)(O)O)c(=O)n1 [cidofovir, reference compound]           HAdV5-GFP         7.5
15  CC(C)(C)OC(=O)CC[C@H](NC(=O)c1cc(Cl)ccc1O)C(=O)Nc1ccc([N+](=O)[O-])cc1Cl           HAdV5-GFP        34.2
16  O=C(Nc1ccc(NCc2ccc(Br)s2)cc1Cl)c1cc(Cl)ccc1O           HAdV5-GFP         8.0
17  CC(C)(CCO)Nc1ccc(NC(=O)c2cc(Cl)ccc2O)c(Cl)c1           HAdV5-GFP       188.3
18  CC(CCO)Nc1ccc(NC(=O)c2cc(Cl)ccc2O)c(Cl)c1 (stereo not shown)           HAdV5-GFP       166.7
19  O=C(Nc1cc([N+](=O)[O-])ccc1F)c1cc(Cl)ccc1O           HAdV5-GFP        26.2
20    O=C(NCc1ccc(C(F)(F)F)cc1)c1cc(Cl)ccc1O           HAdV5-GFP         9.2
21  CS(=O)(=O)Nc1ccc(Cl)cc1C(=O)Nc1ccc(NC2CCCC2)cc1Cl           HAdV5-GFP        20.6
22  O=C(Nc1ccc(NCc2cc(Cl)cc(Cl)c2)cc1Cl)c1cc(Cl)ccc1O           HAdV5-GFP         9.3
23    CN(C)c1ccc(NC(=O)c2cc(Cl)ccc2O)c(Cl)c1           HAdV5-GFP        44.3
24         O=C(Nc1ccc(F)c(F)c1)c1cc(Cl)ccc1O           HAdV5-GFP        29.6
25     CCCNc1ccc(NC(=O)c2cc(Cl)ccc2O)c(Cl)c1           HAdV5-GFP         4.5
26  O=C(Nc1ccc(NCc2cc(Cl)cc(C(F)(F)F)c2)cc1Cl)c1cc(Cl)ccc1O           HAdV5-GFP        17.3
27    O=C(Nc1cc(NC2CCCC2)ccc1F)c1cc(Cl)ccc1O           HAdV5-GFP        32.8

====

Listing of entries alongside the reported inhibition at 10 µM.
Tested on: HAdV5-GFP
Assay: Plaque assay (inhibition of HAdV plaque formation)
Format: cell-based, HAdV-5
Settings: read-out: Plaque Assay (%) Inhibition (10 μM)
Reported Property: inhibition at 10 µM (%)

>>> df
                                    compound  measurement_target  meas_value
 0  CC(CCO)Nc1ccc(NC(=O)c2cc(Cl)ccc2O)c(Cl)c1 (stereo not shown) [Compound 119]           HAdV5-GFP        96.9
 1  O=C(Nc1ccc(NCC2CCCC2)cc1Cl)c1cc(Cl)ccc1O [Compound 86]           HAdV5-GFP         100
 2  O=C(NCC1CCOCC1)c1cc(Cl)ccc1O [Compound 163]           HAdV5-GFP           0
 3  O=C(Nc1ccc(NC2CCCC2)cc1Cl)c1cc(Cl)ccc1O [Compound 78]           HAdV5-GFP         100
 4  O=C(Nc1ccc(NCc2cc(F)cc(C(F)(F)F)c2)cc1Cl)c1cc(Cl)ccc1O [Compound 106]           HAdV5-GFP         100
 5  O=C(Nc1ccc(NCc2cc(F)cc(Cl)c2)cc1Cl)c1cc(Cl)ccc1O [Compound 103]           HAdV5-GFP        98.8
 6  CC(C)[C@H](NC(=O)c1cc(Cl)ccc1O)C(=O)Nc1ccc(F)c(F)c1 [Compound 68]           HAdV5-GFP        98.3
 7  CN(Cc1ccc(F)cc1)C(=O)c1cc(Cl)ccc1O [Compound 41]           HAdV5-GFP           0
 8  O=C(Nc1ccc(NCc2ccc(Br)s2)cc1Cl)c1cc(Cl)ccc1O [Compound 113]           HAdV5-GFP         100
 9  O=C(Nc1ccc([N+](=O)[O-])cc1)c1cc(Cl)ccc1O [Compound 13]           HAdV5-GFP          98
10  C[C@H](NC(=O)c1cc(Cl)ccc1O)C(=O)Nc1ccc([N+](=O)[O-])cc1Cl [Compound 57]           HAdV5-GFP        97.4
11  CC(C)(C)OC(=O)N1CCC(Nc2ccc(NC(=O)c3cc(Cl)ccc3O)c(Cl)c2)CC1 [Compound 124]           HAdV5-GFP        88.9
12  O=C(Nc1ccc(NCc2cc(Cl)cc(C(F)(F)F)c2)cc1Cl)c1cc(Cl)ccc1O [Compound 105]           HAdV5-GFP        99.3
13  CC(C)(NC(=O)c1cc(Cl)ccc1O)c1ccc(F)cc1 [Compound 51]           HAdV5-GFP         100
14  O=C(Nc1ccc(NCc2ccc(O)cc2)cc1Cl)c1cc(Cl)ccc1O [Compound 101]           HAdV5-GFP        80.7
15  O=C(NCc1ccc(Cl)cc1)c1cc(Cl)ccc1O [Compound 38]           HAdV5-GFP        97.4
16  O=C(Nc1ccc(NCc2ccc(Br)cc2)cc1Cl)c1cc(Cl)ccc1O [Compound 97]           HAdV5-GFP         100
17  CC(=O)Nc1ccc(NC(=O)c2cc(Cl)ccc2O)c(Cl)c1 [Compound 77]           HAdV5-GFP           0
18  COc1ccc(Cl)cc1C(=O)Nc1ccc(NC2CCCC2)cc1Cl [Compound 138]           HAdV5-GFP        78.9

====

As shown below, each of these compounds has a reported inhibition at 10 µM value.
Test system: HAdV5-GFP
Assay: Plaque assay (inhibition of HAdV plaque formation)
Assay type: cell-based, HAdV-5
Conditions: read-out: Plaque Assay (%) Inhibition (10 μM)
Experimental: Plaque Assay. […] When cells reached 80-90% confluency, they were infected with HAdV5-GFP (0.06 vp/cell) and rocked for 2 h at 37° C. After the incubation the inoculum was removed, and the cells were washed once with PBS. Plaque Assay. Compounds were tested using low MOI infections (0.06 vp/cell) and at concentrations of 10 μM and in a dose-response assay ranging from 10 to 0.3 μM in a plaque assay. […]
Reported Property: inhibition at 10 µM (%)

>>> print(df.to_string())
                                        mol  measurement_target  meas_value
0  O=C(Nc1cc(F)cc(C(F)(F)F)c1)c1cc(Cl)ccc1O           HAdV5-GFP         100
1  CC(C)C[C@H](NC(=O)c1cc(Cl)ccc1O)C(=O)Nc1ccc([N+](=O)[O-])cc1Cl           HAdV5-GFP        17.4
2  O=C(Nc1cc([N+](=O)[O-])ccc1F)c1cc(Cl)ccc1O           HAdV5-GFP         100
3    O=C(NCc1ccc(C(F)(F)F)cc1)c1cc(Cl)ccc1O           HAdV5-GFP        99.6
4  CC(C)[C@H](NC(=O)c1cc(Cl)ccc1O)C(=O)Nc1cc(F)cc(C(F)(F)F)c1           HAdV5-GFP        95.8
